Listing of entries alongside the reported Ki.
target: human orexin 1 receptor (Homo sapiens (Human), UniProt O43613); experiment: Human orexin 1 receptor radioligand binding (competitive, [3H]-SB674042, CHO cell preparations); settings: human orexin 1 receptor, [3H]-SB674042 competition binding; read-out: hOX1 Ki (nm)
Sequence (O43613 whole entry): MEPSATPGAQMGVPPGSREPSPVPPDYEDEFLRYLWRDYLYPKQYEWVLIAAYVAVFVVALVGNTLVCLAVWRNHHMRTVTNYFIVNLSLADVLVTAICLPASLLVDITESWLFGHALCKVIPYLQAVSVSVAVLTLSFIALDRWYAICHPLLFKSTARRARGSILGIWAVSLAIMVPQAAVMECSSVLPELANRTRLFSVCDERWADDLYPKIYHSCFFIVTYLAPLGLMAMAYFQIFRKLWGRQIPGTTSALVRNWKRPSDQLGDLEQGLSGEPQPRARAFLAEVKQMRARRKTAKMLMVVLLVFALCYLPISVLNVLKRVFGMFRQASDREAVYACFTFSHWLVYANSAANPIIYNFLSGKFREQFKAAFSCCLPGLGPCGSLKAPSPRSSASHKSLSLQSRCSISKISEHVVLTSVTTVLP
Record the value in nM, omitting the unit from your answer.

The examples below pair each entry with its known result.
In plain terms, Cc1cc(C)nc(OCC2CC3CCC2N3C(=O)c2cccc(F)c2-n2nccn2)n1 (racemic) [Example 154] has a documented Ki of 690

In plain terms, Cc1cc(C)nc(OCC2CC3CCC2N3C(=O)c2ccccc2-c2nc(C)no2)n1 (racemic) [Example 153] has a documented Ki of 1100

In plain terms, O=C(c1cccc2cccnc12)N1C2CCC1C(COc1ccc(F)cn1)C2 (racemic) [Example 23] has a documented Ki of 322

In plain terms, O=C(c1cccc(F)c1-n1nccn1)N1C2CCC1C(COc1cnc3ccccc3n1)C2 (racemic) [Example 150] has a documented Ki of 180

New cases:
In plain terms, CCOc1ccc(C)nc1C(=O)N1C2CCC1C(Nc1cnc3ccccc3n1)C2 (single isomer, unassigned) [Example 207] has a documented Ki of 95

In plain terms, O=C(c1c(F)cccc1-n1nccn1)N1C2CCC1C(COc1cnc3ccccc3n1)C2 (racemic) [Example 35] has a documented Ki of 58

In plain terms, COc1ccc2cccnc2c1C(=O)N1C2CCC1C(COc1ccccn1)C2 (racemic) [Example 88] has a documented Ki of 49

In plain terms, O=C(c1cc(F)ccc1-n1nccn1)N1C2CCC1C(COc1ccc(F)cn1)C2 (racemic) [Example 30] has a documented Ki of 47

====

molecular target: rat orexin 1 receptor (Rattus norvegicus); assay: Rat orexin 1 receptor radioligand binding (competitive, [3H]-SB674042, HEK293 cell preparations); conditions: rat orexin 1 receptor, [3H]-SB674042 competition binding; read-out: rOX1 Ki (nm)
Listing of entries alongside the reported pKi.
Scale note: pKi = -log10(concentration in M).

The examples below pair each entry with its known result.
In plain terms, COc1ccc(C(=O)N2C3CCC2C(COc2ccc(F)cn2)C3)c(-n2nccn2)c1 (racemic) has a documented pKi of 6.30

In plain terms, Cc1ccc(-n2nccn2)c(C(=O)N2C3CCC2C(COc2cnccn2)C3)n1 (racemic) has a documented pKi of 5.11

In plain terms, O=C(c1cccc(F)c1-c1ccnnc1)N1[C@@H]2CC[C@H]1[C@H](Nc1cnc(C(F)(F)F)cn1)C2 has a documented pKi of 5.85

In plain terms, O=C(c1cccc(F)c1-c1ncccn1)N1C2CCC1C(Oc1ncc(C(F)(F)F)cn1)C2 (single isomer, unassigned) [Example 285] has a documented pKi of 6.14

In plain terms, O=C(c1ccccc1-n1nccn1)N1C2CCC1C(Nc1ccc(C(F)(F)F)nn1)C2 (racemic) has a documented pKi of 6.13

New cases:
In plain terms, O=C(c1ccccc1-n1nccn1)N1C2CCC1C(Nc1cccc(C(F)(F)F)n1)C2 (racemic) has a documented pKi of 5.96

In plain terms, O=C(c1c(F)cccc1-n1nccn1)N1C2CCC1C(COc1cnc3ccccc3n1)C2 (racemic) has a documented pKi of 7.16

In plain terms, COc1cccc(OC)c1C(=O)N1C2CCC1C(COc1ccc(F)cn1)C2 (racemic) has a documented pKi of 6.52

In plain terms, Cn1ncc(-c2ccccc2)c1C(=O)N1C2CCC1C(COc1ccccn1)C2 (racemic) has a documented pKi of 6.04

In plain terms, COc1cnc(C(=O)N2C3CCC2C(COc2ccc(F)cn2)C3)c(-n2nccn2)c1 (racemic) has a documented pKi of 5.47

In plain terms, O=C(c1c(O)ccc2cccnc12)N1C2CCC1C(COc1ccccn1)C2 (racemic) has a documented pKi of 6.58

The reported numbers originate from patent US9062078B2.
